Data provenance is patent US11457628B2.

test system: green peach aphid; assay: activity against the green peach aphid, airbrush spray method; format: in vivo; conditions: 100 mg/L, after 48 hours
Please provide measured Lethality to Green Peach Aphid (%) for the entries that follow.
Give bare numbers, in %.

>>> measurement("Cc1cc(N(C)Cc2cnn(-c3ccccc3)c2)nc(C(C)C)n1")
0
>>> measurement("CCc1ncnc(NCc2cnn(-c3ccccc3)c2C)c1Cl")
0
>>> measurement("Cc1nc(Cl)cc(N(C)Cc2c(C)nn(-c3ccccc3)c2C)n1")
22

Moving on to the next compound.
Problem: Request body: readout Lethality to Green Peach Aphid (%), system green peach aphid, query "Cc1nc(C)c(C)c(N(C)Cc2cnn(-c3ccccc3)c2)n1" . Return the value.
Solution: 30

====

system: cucumber downy mildew; assay: in vivo protective activity, pot determination, cucumber downy mildew; conditions: 50 mg/L
recorded endpoint: Protective Activity (%), cucumber downy mildew
Answers are plain numbers, in %.

Consider the following illustrative entries.
>>> measurement("CCc1ncnc(NCc2cnn(-c3ccccc3)c2C)c1Cl")
20
>>> measurement("Cc1cc(N(C)Cc2cnn(-c3ccccc3)c2)nc(C(C)C)n1")
0
>>> measurement("Cc1nc(C)c(C)c(N(C)Cc2cnn(-c3ccccc3)c2)n1")
0

Moving on to the next molecule.
Problem: // query Protective Activity (%), cucumber downy mildew value for entry "CCc1ncnc(NCc2cnn(-c3ccccc3)c2C(F)(F)F)c1Cl"
Solution: 20
